Reference source: ChEMBL document CHEMBL1149249

molecular target: Adenosine receptor A2a (Rattus norvegicus); experiment: Displacement of [3H]ZM241385 from adenosine A2A receptor in rat brain membrane; format: cell membranes
Sequence (P30543 whole entry): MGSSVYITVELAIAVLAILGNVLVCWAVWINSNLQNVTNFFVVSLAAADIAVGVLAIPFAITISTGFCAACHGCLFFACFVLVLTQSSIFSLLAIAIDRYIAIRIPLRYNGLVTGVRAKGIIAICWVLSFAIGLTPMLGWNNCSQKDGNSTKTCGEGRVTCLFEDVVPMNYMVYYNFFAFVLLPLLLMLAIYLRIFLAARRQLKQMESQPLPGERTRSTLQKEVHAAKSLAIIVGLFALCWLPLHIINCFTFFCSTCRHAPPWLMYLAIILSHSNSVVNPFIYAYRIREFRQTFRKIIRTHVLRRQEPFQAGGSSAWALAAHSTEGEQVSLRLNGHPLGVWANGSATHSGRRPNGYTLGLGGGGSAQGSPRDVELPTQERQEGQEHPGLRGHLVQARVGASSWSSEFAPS
result-type: Ki

Study these solved cases before continuing.
COc1ccc(OC[C@@H]2CC[C@H]3CN(c4nc(N)n5nc(-c6ccco6)nc5n4)CCN3C2)cc1 (racemic)	70 nM (antagonist)
Nc1nc(N2CCN3C[C@@H](CNc4ncccn4)CC[C@H]3C2)cc2nc(-c3ccco3)nn12	47 nM (antagonist)

The compound listed as Nc1cc(N2CCN3C[C@@H](COc4ccccc4)CC[C@H]3C2)nc2nc(-c3ccco3)nn12 (racemic) shows Ki equal to 45 nM (antagonist)

Quick note, Ki for Nc1nc(N2CCN3C[C@@H](CNCc4cccnc4)CC[C@H]3C2)nc2nc(-c3ccco3)nn12 landed at 51 nM (antagonist)

// Ki value for Nc1nc(N2CCN3C[C@@H](CO)CC[C@H]3C2)nc2nc(-c3ccco3)nn12 (racemic) : 45 nM (antagonist)

Form field Ki, entry Cc1nn(C)c(Cl)c1CN(Cc1c(C)nn(C)c1Cl)C[C@H]1CC[C@H]2CN(c3nc(N)n4nc(-c5ccco5)nc4n3)CCN2C1 : 180 nM (antagonist)

====

target: UniProtKB P30543; experiment: Displacement of [3H]ZM241385 from adenosine A2A receptor in rat brain membrane; assay type: cell membranes
Recorded Ki, one value per entry.

Example compounds with recorded Ki:
COC(=O)c1nc(Cl)c(N2CCN3C[C@H](CNc4nc(N)n5nc(-c6ccco6)nc5n4)CC[C@@H]3C2)nc1N (racemic)	34 nM (antagonist)
Nc1nc(NC[C@@H]2CC[C@@H]3CN(Cc4ccc(F)cc4F)CCN3C2)cc2nc(-c3ccco3)nn12	230 nM (antagonist)
Nc1nc(N2CCN3C[C@H](COc4ncnc5ccccc45)CC[C@H]3C2)nc2nc(-c3ccco3)nn12 (racemic)	37 nM (antagonist)
Nc1nc(N2CCN3CCC[C@@H]3C2)nc2nc(-c3ccco3)nn12	30 nM (antagonist)
NC[C@@H]1CC[C@H]2CN(c3nc(N)n4nc(-c5ccco5)nc4n3)CCN2C1	2 nM (antagonist)
Nc1nc(N2CCN3C[C@@H](COc4ccccc4)CC[C@H]3C2)nc2nc(-c3ccco3)nn12 (racemic)	21 nM (antagonist)
Nc1nc(N2CCN3C[C@H](COc4ccccc4)CC[C@H]3C2)nc2nc(-c3ccco3)nn12 (racemic)	53 nM (antagonist)
Nc1cc(N2CCN3[C@@H](CO)CCC[C@H]3C2)nc2nc(-c3ccco3)nn12 (racemic)	610 nM (antagonist)

Noted for Nc1nc(N2CCN3C[C@@H](CN(Cc4ccncc4)Cc4ccncc4)CC[C@H]3C2)nc2nc(-c3ccco3)nn12 (racemic) : its Ki reads 3 nM (antagonist)

The compound Nc1cc(N2CCN3CCC[C@H]3C2)nc2nc(-c3ccco3)nn12 showed Ki equal to 170 nM (antagonist)

====

assay: Metabolic stability in rat liver microsome at 2 uM after 30 mins; type: ADME; conditions: liver microsomes, read-out: Stability
result-type: remaining at 0.5 h, 2 µM (%)

Nc1nc(N2CCN3C[C@@H](COc4ccc5ncccc5c4)CC[C@H]3C2)nc2nc(-c3ccco3)nn12	25
Nc1nc(N2CCN3C[C@@H](COc4cccc(F)c4)CC[C@H]3C2)nc2nc(-c3ccco3)nn12 (racemic)	36
Nc1nc(N2CCN3CCC[C@@H]3C2)nc2nc(-c3ccco3)nn12	75
Nc1nc(N2CCN3C[C@@H](CO)CC[C@H]3C2)cc2nc(-c3ccco3)nn12 (racemic)	100

A: Nc1nc(N2CCN3CCC[C@H]3C2)nc2nc(-c3ccco3)nn12
B: Nc1nc(N2CCN3C[C@@H](CO)CC[C@H]3C2)nc2nc(-c3ccco3)nn12 (racemic)
Problem: Out of A and B , name the one with the higher remaining at 0.5 h, 2 µM. Answer = label.
Solution: B
(B: 100%, A: 54%)
